Overview of reported log10 IC50 across a group of compounds:
- Test system: PDE4
- experimental-details: PDE4 Assay Procedure ([3H]-cAMP SPA)
- Format: biochemical
- recorded-conditions: 15 nM [3H]-cAMP, 1 hour at room temperature, SPA beads
// stored as log10 of IC50 expressed in nM

1) CC(C)Cc1nc2sc3c(NCc4cccnc4)ncnc3c2c2c1COC(C)(C)C2; 1.34

So, `CC1(C)Cc2c(c(N3CCOCC3)nc3sc4c(NCc5ccncc5)ncnc4c23)CO1` ? Its log10 IC50 was 1.28

So, `CC1(C)Cc2c(c(N3CCOCC3)nc3sc4c(NCCN5CCOCC5)ncnc4c23)CO1` ? Its log10 IC50 was 1.41

So, `CC1(C)Cc2c(c(N3CCOCC3)nc3sc4c(NCc5ccccn5)ncnc4c23)CO1` ? Its log10 IC50 was 1.32

So, `CC1(C)Cc2c(c(N3CCOCC3)nc3sc4c(NCc5cccnc5)ncnc4c23)CO1` ? Its log10 IC50 was 0.66

So, `COCCN(C)c1nc2sc3c(NCc4cccnc4)ncnc3c2c2c1COC(C)(C)C2` ? Its log10 IC50 was 1.79

So, `CCCc1nc2sc3c(NCCN4CCOCC4)ncnc3c2c2c1COC(C)(C)C2` ? Its log10 IC50 was 1.28

So, `CC1(C)Cc2c(c(N3CCCC3)nc3sc4c(NCc5ccncc5)ncnc4c23)CO1` ? Its log10 IC50 was 1.51

Data origin: patent US20080207645A1
